Molecular target: T1, soluble human TREM2 (sTREM2) (human, UniProt Q9NZC2 19-157)
T1 construct: also called soluble TREM2; TREM2 ectodomain
T1 sequence: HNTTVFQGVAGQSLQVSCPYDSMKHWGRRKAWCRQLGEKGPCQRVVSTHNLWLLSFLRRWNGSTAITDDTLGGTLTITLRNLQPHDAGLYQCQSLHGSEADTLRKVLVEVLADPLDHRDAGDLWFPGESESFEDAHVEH
Assay: sandwich ELISA: test antibody coated as capture, sTREM2 from BMDM culture supernatant, biotinylated 3.17A9 as detection; normalised to 1.16B8
measurement.type: binding result

rat Para.09- LC 3.27H7 mIgG2a LALAPG (antibody, V domains shown, Mouse IgG2a LALAPG constant region; also called Rat para.09 mIgG2a LALAPG; Para.09. mIgG2a LALAPG) VH: EVQLVETGGSLVQPGKSLRLTCATSGFPFSNVWLHWVRQSPEKHPEWVAHIKAKSDNYATYYAESVKGRFTISRDDSKSSVFLQMNSLKEEDTAIYYCTDILEYWGQGTLVTVSS VL: DVVLTQAPLSVSVTPGESASISCRSSRSLLTSKGITSLYWYLQKPGMSPHLLIYRMSNLASGIPDRFSGSGSETDFTLKISEVEPEDVGVYYCAQFLVYPYTFGAGTKLELKR :: no binding
rat 3.10C2 mIgG2a LALAPG (antibody, V domains shown, also called Rat 3.10C2 mIgG1a LALAPG) VH: EVQLVETGGSLVQPGKSLKLTCATSGFPFSNVWMHWVRQSPEKQLEWIAHIKAKSDNYATYYAESVKGRFTISRDDSKTSIYLQMNSLKEDDTAIYYCTGLDYWGQGVMVTVSS VL: DTVLTQAPLSLSVTPGESASISCRSSKSLLGVRDITSLYWYLQKPGKSPQLLIYRMSNLASGVPDRFSGSGSETDFTLKISEVETEDVGVYYCAQFLRYPYTFGPGTKLELK :: no binding

Attribution: patent US20220389097A1
